Taken from the Biogen ADME set (Fang et al. 2023).

observation-type: MDR1-MDCK efflux ratio

molecule	MDR1-MDCK efflux ratio
Cc1nn(C)c(C)c1CCC(=O)N1CCCc2ncccc21	22.7
Cc1[nH]nc2c1C1(CCCCC1)CC(=O)N2	3.36
CN(CC(=O)NC1CC1)C(=O)C1C2CC3CC(C2)CC1C3 (stereo not given)	1.58
COc1cc(OC)cc(-c2c(C)ncnc2OC)c1	0.749
COCCNc1ncnc2ccsc12	0.711

[a] COc1ccccc1NC(=O)CSc1nc(C(C)(C)C)nc2ccccc12
[b] Cc1c[nH]c(C(=O)NCC2(N3CCCCC3)CCCC2)n1
[c] COc1ccc(-c2nnc(-c3ccccc3)o2)cc1OC
[d] Fc1ccc(CCNc2ncnc3ncccc23)cc1
Please rank these molecules by MDR1-MDCK efflux ratio in descending order. # format: label list in the order the request specifies
b, d, a, c
(b: 20.3, d: 2.35, a: 1.26, c: 0.227)

[P] Nc1nc(-c2ccccc2)nc2nc(C3CCCN(CC(=O)N4CCCC4)C3)ccc12 (stereo not given)
[Q] CCCN(C)C(=O)Nc1cccc(-c2nnc3n2CCCCC3)c1
Given the listed items, does P or Q have the lesser reported MDR1-MDCK efflux ratio? Bench note: the answer is the label of the chosen record.
P

[1] Cc1cc(N2CCN(C(=O)OC(C)(C)C)[C@H](C)C2)ncn1
[2] NC(=O)c1cnc(N2CCc3[nH]nc(C(F)(F)F)c3C2)c(Cl)c1
Consider 1 and 2 . Which of these has its MDR1-MDCK efflux ratio at a higher number? Bench note: the answer is the label of the chosen record.
2
(2: 7.33, 1: 0.766)
